target: CDK2/CyclinE1 (Homo sapiens (Human)); assay: CDK2/CyclinE1 kinase inhibitory activity (Caliper mobility shift); conditions: read-out: CDK2/Cyclin El IC50
pIC50: −log10 of the molar value.
assay-readout: pIC50

[[record]]
compound = "CC(C)NS(=O)(=O)c1ccc(Nc2ncc(C(F)(F)F)c(OC3CCCC3O)n2)cc1 (single isomer, unassigned) [Example 106b]"
study_target = "CDK2/CyclinE1 (Homo sapiens (Human))"
assay_readout = "pIC50"
recorded_value = "> 8.00"

[[record]]
compound = "N#Cc1cnc(Nc2ccc(S(=O)(=O)NC3COC3)cc2)nc1N1CCCCC1"
study_target = "CDK2/CyclinE1 (Homo sapiens (Human))"
assay_readout = "pIC50"
recorded_value = "> 8.00"

[[record]]
compound = "CNS(=O)(=O)N1CCC(Nc2ncc(C#N)c(OCC3(C)CCCC3)n2)CC1"
study_target = "CDK2/CyclinE1 (Homo sapiens (Human))"
assay_readout = "pIC50"
recorded_value = "> 8.00"

[[record]]
compound = "CC1(O)CCCC1Oc1nc(NC2CCN(S(=O)(=O)C(F)(F)F)CC2)ncc1C#N (single isomer, unassigned) [Example 42b]"
study_target = "CDK2/CyclinE1 (Homo sapiens (Human))"
assay_readout = "pIC50"
recorded_value = "7.00 to 8.00"


Lab note: next compound to report on.
Recall the recorded pIC50 for CC1(O)CC(F)(F)CC1Oc1nc(NC2CCN(S(=O)(=O)CC3CC3)CC2)ncc1C#N (single isomer, unassigned) [Example 44b] with CDK2/CyclinE1 (Homo sapiens (Human)) and state it.
> 8.00

* * *

target: CDK4/Cyclin D1 (Homo sapiens (Human)); assay: CDK4/CyclinD1 kinase inhibitory activity (Caliper mobility shift)
Sequence (P11802 whole entry): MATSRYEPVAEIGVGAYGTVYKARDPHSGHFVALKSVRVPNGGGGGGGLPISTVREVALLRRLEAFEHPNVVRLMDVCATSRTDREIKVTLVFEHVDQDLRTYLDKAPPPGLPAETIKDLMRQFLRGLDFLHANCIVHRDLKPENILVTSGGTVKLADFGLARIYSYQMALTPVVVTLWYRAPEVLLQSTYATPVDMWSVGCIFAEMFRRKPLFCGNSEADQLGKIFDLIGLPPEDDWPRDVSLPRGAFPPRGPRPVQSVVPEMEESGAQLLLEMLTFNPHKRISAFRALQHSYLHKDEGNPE
Sequence (P24385 whole entry partner): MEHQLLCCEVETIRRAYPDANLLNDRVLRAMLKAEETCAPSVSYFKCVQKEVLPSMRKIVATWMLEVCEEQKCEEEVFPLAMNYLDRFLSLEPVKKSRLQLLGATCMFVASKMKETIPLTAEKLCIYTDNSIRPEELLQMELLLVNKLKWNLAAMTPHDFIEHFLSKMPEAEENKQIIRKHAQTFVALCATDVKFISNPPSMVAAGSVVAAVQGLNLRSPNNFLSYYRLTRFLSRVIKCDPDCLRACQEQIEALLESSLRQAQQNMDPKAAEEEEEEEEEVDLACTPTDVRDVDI
assay-readout: IC50

As a guide, the following entries are already answered.
[[record]]
compound = "CNS(=O)(=O)c1ccc(Nc2ncc(Br)c(OC3CCCC3O)n2)cc1 (single isomer, unassigned) [Example 142a]"
recorded_value = "100 to 1000 nM"

[[record]]
compound = "[2H]C([2H])([2H])NS(=O)(=O)c1ccc(Nc2ncc(C(F)(F)F)c(O[C@H]3CCCOC[C@H]3O)n2)cc1 (single isomer, unassigned) [Example 103a]"
recorded_value = "100 to 1000 nM"

[[record]]
compound = "N#Cc1cnc(Nc2ccc(S(N)(=O)=O)cc2)nc1-c1cccc(O)c1"
recorded_value = "10 to 100 nM"

[[record]]
compound = "N#Cc1cnc(Nc2ccc(S(N)(=O)=O)cc2)nc1-c1cccc(F)c1"
recorded_value = "100 to 1000 nM"


Now consider a different compound.
Value lookup for IC50; key = CNS(=O)(=O)c1ccc(Nc2ncc(C#N)c(OC3CCC[C@H]3O)n2)cc1 (mixture of isomers)
100 to 1000 nM

The measurements presented in this section are drawn from patent US20240166635A1.
